Source listed as patent US20150197568A1.

# Assayed target: Mature human IL-6 (human) (UniProt P05231)
# Sequence (P05231 30-212): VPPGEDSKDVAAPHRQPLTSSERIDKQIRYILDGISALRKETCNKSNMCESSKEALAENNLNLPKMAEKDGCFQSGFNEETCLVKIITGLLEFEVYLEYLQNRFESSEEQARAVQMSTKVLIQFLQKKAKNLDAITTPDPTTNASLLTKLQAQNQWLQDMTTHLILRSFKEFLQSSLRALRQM
# Protocol description: cell-based or functional assay
Assay metric: IC50, TF-1 cell proliferation assay
# output: number + unit

Check the records and state IC50, TF-1 cell proliferation assay for Antibody 14 scFv (scFv, part only; not given: scFv linker, part only) scFv, part: EVQLVQSGGGLIQPGGSLRLSCAASGFTISSNYMIWVRQAPGKGLEWVSDLYYYAGDTYYADSVKGRFTMSRDISKNTVYLQMNSLRAEDTGVYYCARWADDHNYPHIDVWGRGTLVTVSSDIVMTQSPSTLSASVGDRVTITCRASQGISSWLAWYQQKPGRAPKVLIYKASTLESGVPSRFSGSGSGTDFTLTISSLQPEDFATYYCAAHYAAPWTFGQGTKLEIKR
448 pM
